B1: Far upstream element-binding protein 2, residues 142 to 214; numbered along this chain, Q92945 (parent)
chain: RTSMTEEYRVPDGMVGLIIGRGGEQINKIQQDSGCKVQISPDSGGLPERSVSLTGAPESVQKAKMMLDDIVSR

Variants of: B1
Assay: abundance fitness (aPCA) (normalised: wild type 0, dead -1); higher = more abundant; growth selection in yeast, the domain comes from the species named
Conditions: Homo sapiens

>  <variant_id>
M66W

>  <abundance fitness>
-0.473

$$$$
>  <variant_id>
V37K

>  <abundance fitness>
-0.965

$$$$
>  <variant_id>
S72G

>  <abundance fitness>
0.118

$$$$
>  <variant_id>
E24L

>  <abundance fitness>
-0.199

$$$$
>  <variant_id>
S50P

>  <abundance fitness>
-0.159

$$$$
>  <variant_id>
S59C

>  <abundance fitness>
-0.063

$$$$
>  <variant_id>
S43C

>  <abundance fitness>
-0.135

$$$$
>  <variant_id>
G20T

>  <abundance fitness>
-0.59

$$$$
>  <variant_id>
Q38A

>  <abundance fitness>
0.02

$$$$
>  <variant_id>
K28R

>  <abundance fitness>
0.002

$$$$
>  <variant_id>
V71W

>  <abundance fitness>
-0.211

$$$$
